Conditions: in isopropanol, 318.15 K
Metric Name: solubility (mole fraction)
In your answer, state the number alone without any accompanying words.

Data request: Reported solubility (mole fraction), compound CCOc1ccc(C2NC(=O)NC=C2C(=O)c2cc(OC)c(OC)c(OC)c2)cc1 (stereo unspecified) : ____
Data returned: 0.00113

* * *

Conditions: in PEG-400, 318.15 K
Metric Name: solubility (mole fraction)

Data request: Reported solubility (mole fraction), compound CCOc1ccc(C2NC(=O)NC=C2C(=O)c2cc(OC)c(OC)c(OC)c2)cc1 (stereo unspecified) : ____
Data returned: 0.0121

* * *

Conditions: in DMSO, 318.15 K
Metric Name: solubility (mole fraction)

Data request: Reported solubility (mole fraction), compound CCOc1ccc(C2NC(=O)NC=C2C(=O)c2cc(OC)c(OC)c(OC)c2)cc1 (stereo unspecified) : ____
Data returned: 0.00996

Cited source: BigSolDB 2.1
